Reference source for all entries: paper PMC1977788

Molecular target: EGFR (Homo sapiens, UniProt P00533)
Test: 125I-EGF whole-cell saturation binding, ZR-75-9a1 FCSdcc 1 week, Woolf analysis
reported-property: Kd (nM)
Numbers only, in nM.

Endpoint output: Kd of EGF (protein) NSYPGCPSSYDGYCLNGGVCMHIESLDSYTCNCVIGYSGDRCQTRDLRWWELR . Value?
0.37
